molecular target: PI-3 kinase γ (Homo sapiens, UniProt P48736); assay: PI3Kγ inhibitory activity, PI3-kinase HTRF assay (inhibition ratio); format: biochemical; conditions: 0.5 h, compound at 50 μmol/L
Sequence (P48736 whole entry): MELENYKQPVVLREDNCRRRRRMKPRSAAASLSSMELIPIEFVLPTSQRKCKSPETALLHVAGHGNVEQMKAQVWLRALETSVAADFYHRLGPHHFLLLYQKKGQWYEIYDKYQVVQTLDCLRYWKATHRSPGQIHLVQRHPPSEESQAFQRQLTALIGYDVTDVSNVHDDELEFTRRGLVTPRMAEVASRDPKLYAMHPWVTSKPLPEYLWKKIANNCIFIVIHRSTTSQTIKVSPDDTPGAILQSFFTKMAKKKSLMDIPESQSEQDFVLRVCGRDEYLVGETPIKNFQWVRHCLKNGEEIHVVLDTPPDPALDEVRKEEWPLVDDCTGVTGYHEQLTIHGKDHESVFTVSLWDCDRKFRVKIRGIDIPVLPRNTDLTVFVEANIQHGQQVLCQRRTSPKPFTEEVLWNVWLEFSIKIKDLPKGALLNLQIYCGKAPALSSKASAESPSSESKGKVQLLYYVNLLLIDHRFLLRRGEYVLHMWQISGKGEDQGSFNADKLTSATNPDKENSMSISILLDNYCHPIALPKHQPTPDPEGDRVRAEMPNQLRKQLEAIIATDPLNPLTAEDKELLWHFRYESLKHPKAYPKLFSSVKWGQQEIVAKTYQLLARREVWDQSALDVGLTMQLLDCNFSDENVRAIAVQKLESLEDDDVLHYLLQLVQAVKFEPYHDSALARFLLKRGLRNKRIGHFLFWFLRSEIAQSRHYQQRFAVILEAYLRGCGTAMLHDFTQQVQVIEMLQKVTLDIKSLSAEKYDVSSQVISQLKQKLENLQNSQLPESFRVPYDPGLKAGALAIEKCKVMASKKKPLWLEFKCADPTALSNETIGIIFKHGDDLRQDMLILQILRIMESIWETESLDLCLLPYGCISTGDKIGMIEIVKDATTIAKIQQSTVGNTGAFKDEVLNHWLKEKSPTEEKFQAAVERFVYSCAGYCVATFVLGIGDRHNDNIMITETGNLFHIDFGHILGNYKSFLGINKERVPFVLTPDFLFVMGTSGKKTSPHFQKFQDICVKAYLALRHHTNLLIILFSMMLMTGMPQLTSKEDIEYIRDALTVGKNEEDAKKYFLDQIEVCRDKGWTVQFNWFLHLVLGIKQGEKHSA
measured-attribute: inhibition at 50 µM (%)
All answers are understood in %, so give the number only.

- O=C(Nc1ccccc1)N1CCOc2ccc(-c3ccc(CO)cc3)nc21 [Compound I-97]: 89
- O=C(NC1CCCCC1)N1CCOc2cccnc21 [Compound I-17]: 88
- O=C(O)c1ccc(-c2cnc3c(c2)OCCN3C(=O)Nc2ccccc2)s1 [Compound I-285]: 88
- O=C(O)c1ccc(-c2ccc3c(n2)N(C(=O)Nc2ccncc2)CCO3)cc1 [Compound I-209]: 90
- CNC(=O)c1ccc(-c2ccc3c(n2)N(C(=O)Nc2ccccc2)CCO3)cc1 [Compound I-70]: 71
- COCOc1ccc(C(=O)OC)cc1Nc1ccc2c(n1)N(C(=O)Nc1ccccc1)CCO2 [Compound I-179]: 79
- O=C(Nc1ccccc1)N1CCOc2cc(Nc3ccc(Oc4ccccc4)cc3)cnc21 [Compound I-322]: 78
- O=C(Nc1ccccc1)N1CCOc2ccc(-c3nccs3)nc21 [Compound I-83]: 92

Alright, here's another compound for you.
What inhibition at 50 µM value was documented for this compound, CC1(Cc2ccccc2)SC(N2CCOc3cccnc32)=NC1=O (stereo not drawn) [Compound I-4] ? 84
